- Organism: Rattus norvegicus
- ASSAY_PROCEDURE: Open TG-GATES - Regimen: Daily Repeat
- Type: toxicity, organism-based, Sprague-Dawley
- Design: regimen Daily Repeat, gender Male, age 6 weeks
- SETTINGS: in vivo, po, 0 mg/kg, […], tissue Plasma, route gavage, dose level Control, time 7 day
Label label 1 when ALT >= 40 IU/L; otherwise label 0.

Sample answers from the record:
CC(=O)Nc1nnc(S(N)(=O)=O)s1 [ACETAZOLAMIDE] ... label 0
Clc1c(Cl)c(Cl)c(Cl)c(Cl)c1Cl ... label 0
Cc1cccc(Nc2ccccc2C(=O)O)c1C ... label 0
C1CCC(C(CC2CCCCN2)C2CCCCC2)CC1 (stereo not given) ... label 0

Now for a further compound.
Could you tell me if the measured ALT of `C#C[C@]1(O)CC[C@H]2[C@@H]3CCC4=Cc5oncc5C[C@]4(C)[C@H]3CC[C@@]21C` reaches 40 IU/L or more?
label 1

----------
Assignment: determine reported CRE for the given molecules.
- Species: Rattus norvegicus
- ASSAY_PROCEDURE: Open TG-GATES - Regimen: Daily Repeat
- Assay type: toxicity, organism-based, Sprague-Dawley
- Design: regimen Daily Repeat, gender Male, age 6 weeks
- SETTINGS: in vivo, po, 0 mg/kg, […], tissue Plasma, route gavage, dose level Control, time 7 day
Answers are plain numbers, in mg/dL.

// worked examples, CRE included
Cc1cccc(Nc2ccccc2C(=O)O)c1C ... 0.4
CC(CN1c2ccccc2Sc2ccccc21)N(C)C (stereo not given) ... 0.2
CC(=O)Nc1nnc(S(N)(=O)=O)s1 [ACETAZOLAMIDE] ... 0.2
Clc1c(Cl)c(Cl)c(Cl)c(Cl)c1Cl ... 0.6

We next turn to a different molecule, shown below.
Entry `CN1C(C(=O)Nc2ccccn2)=C(O)c2sc(Cl)cc2S1(=O)=O` has what CRE?
0.4

----------
- Organism: Rattus norvegicus
- ASSAY_PROCEDURE: Open TG-GATES - Regimen: Single
- Format: toxicity, organism-based, Sprague-Dawley
- Parameters: regimen Single, gender Male, age 6 weeks
- SETTINGS: in vivo, po, 0 mg/kg, 6 h, tissue Plasma, route gavage, dose level Control
ASSAY_READOUT: Ca (mg/dL)
One number for each entry, in mg/dL.

Cc1cccc(Nc2ccccc2C(=O)O)c1C [MEFENAMIC ACID] ... 10.3

Hey, can you go through the list below and give me Ca for every item?
1. CCOC(=O)[C@H](CCc1ccccc1)N[C@@H](C)C(=O)N1CCC[C@H]1C(=O)O
2. COc1cc([C@@H]2c3cc4c(cc3[C@@H](O[C@@H]3O[C@@H]5CO[C@@H](C)O[C@H]5[C@H](O)[C@H]3O)[C@H]3COC(=O)[C@H]23)OCO4)cc(OC)c1O [ETOPOSIDE]
3. CC(CN1c2ccccc2Sc2ccccc21)N(C)C (centres undefined) [PROMETHAZINE]
4. CN(C)[C@@H]1C(O)=C(C(N)=O)C(=O)[C@@]2(O)C(O)=C3C(=O)c4c(O)cccc4[C@@](C)(O)[C@H]3C[C@@H]12 [TETRACYCLINE]

1: 10.8; 2: 10.6; 3: 10.9; 4: 10.6

----------
- Species on record: Rattus norvegicus
- ASSAY_PROCEDURE: Open TG-GATES - Regimen: Daily Repeat
- Format: toxicity, organism-based, Sprague-Dawley
- Parameters: regimen Daily Repeat, gender Male, age 6 weeks
- SETTINGS: in vivo, po, 0 mg/kg, […], tissue Blood, route gavage, dose level Control, time 14 day
ASSAY_READOUT: Eos
The answer consists of two parts: a number and, after it, its unit.

CC(CN1c2ccccc2Sc2ccccc21)N(C)C (stereo not given) [PROMETHAZINE] ... 1%
C1CCC(C(CC2CCCCN2)C2CCCCC2)CC1 (stereo not given) [PERHEXILINE] ... 0.2%
Clc1c(Cl)c(Cl)c(Cl)c(Cl)c1Cl [PERCHLOROBENZENE] ... 1%
CN1C(C(=O)Nc2ccccn2)=C(O)c2sc(Cl)cc2S1(=O)=O [LORNOXICAM] ... 1%
CN(C)[C@@H]1C(O)=C(C(N)=O)C(=O)[C@@]2(O)C(O)=C3C(=O)c4c(O)cccc4[C@@](C)(O)[C@H]3C[C@@H]12 [TETRACYCLINE] ... 0.6%
Cc1cccc(Nc2ccccc2C(=O)O)c1C [MEFENAMIC ACID] ... 1%
CCOC(=O)[C@H](CCc1ccccc1)N[C@@H](C)C(=O)N1CCC[C@H]1C(=O)O ... 1%
O=C(O)Cc1ccccc1Nc1c(Cl)cccc1Cl [DICLOFENAC] ... 0.8%
CC(=O)Nc1nnc(S(N)(=O)=O)s1 [ACETAZOLAMIDE] ... 0.8%

Next item in the queue.
What does the record list as Eos for C#C[C@]1(O)CC[C@H]2[C@@H]3CCC4=Cc5oncc5C[C@]4(C)[C@H]3CC[C@@]21C [DANAZOL] ?
0.8%
